- measured-on: Fibroblast growth factor 2 (Homo sapiens)
- assay: basic fibroblast growth factor binding to printed compounds – biochemical, small-molecule microarray, 635/667 nm fluorescence, primary screen (AID 1133)
- setup-conditions: FGF2, fluorescence 635/667, higher = more signal
endpoint-name: composite z-score
// return just the number, without any unit appended

If you can, please state the reported composite z-score value of COc1ccc([Si](C)(C)[C@@H]2[C@@H](CCO)O[C@]3(C(=O)N(Cc4ccccc4)c4ccc(NC(=O)[C@H](C)O)cc43)[C@H]2C)cc1 .
0.462

Quick one: CCC1=C2CN(Cc3ccccc3)[C@@H](C(=O)Cc3ccccc3)C2C=CCC1 (some centres undefined)
0.0052

Quick one: CCOC(=O)C[C@H]1[C@H](OC(=O)c2ccc(C(=O)c3ccccc3)cc2)[C@@H](NC(=O)c2ccc3ccccc3n2)c2cc(OCCCO)ccc2N1C(=O)Cc1ccc(OC)cc1
0.52

Quick one: CCCCC(CC)C(O)C1C=CC2C(=O)N(C)C(=O)C2N1Nc1ccccc1 (centres undefined)
-0.364

###

- assay: binders of probe aHhip on microarray, primary screen, stem cell growth factor project, biochemical, small-molecule microarray, fluorescence 635/667 (AID 1087);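 note: score merges spot fluorescence at 667nm with spot signal to noise ratio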
- setup-conditions: higher = more signal
Entries are grouped by composite z-score into these classes: lower = under -0.1, middle = from -0.1 up to 0.02, upper = 0.02 and over

Classify this compound: CCOC(=O)C1=C[C@@H](c2ccccc2)N(S(=O)(=O)c2ccc(C)cc2)[C@H]1c1ccc(OC)cc1
upper

Quick one: [N-]=[N+]=Nc1ccccc1[C@@H]1OC(c2ccc(OCCCO)cc2)=N[C@]1(Cc1ccccc1)C(=O)O
lower

Quick one: CCCCC(CC)C(O)C1C=CC2C(=O)N(c3ccccc3)C(=O)C2N1Nc1ccc(C#N)cc1 (stereo not given)
lower

Quick one: COc1ccc([Si](C)(C)[C@H]2[C@H](CC(=O)N3CCC[C@H]3CO)O[C@@]3(C(=O)N(Cc4ccc(N5CCOC5=O)cc4)c4ccccc43)[C@@H]2C)cc1
middle

Quick one: CN1C(=O)C2C=CC(C(O)c3cccn3C)N(Nc3ccc([N+](=O)[O-])cc3[N+](=O)[O-])C2C1=O (stereo not given)
middle

Quick one: Cc1ccc(C(C)CC(O)C2C=CC3C(=O)N(c4ccccc4)C(=O)C3N2Nc2ccccc2)o1 (stereo not given)
upper

Quick one: COc1cc2c(cc1O)C=[N+](Cc1sc3ccccc3c1Cl)CC2
middle

Quick one: C=CCC(OC(C)=O)[C@@H]1[C@@H](N(Cc2ccc(-c3cccc(C(F)(F)F)c3)o2)C(=O)Cc2ccc(OC)cc2)c2cc(OCCCO)ccc2N1C(=O)c1ccc(-c2ccccc2)cc1 (stereo not given in full)
upper

Quick one: NC(=O)NCC#Cc1ccc2c(c1)[C@]1(C(=O)N2)[C@H](c2ccccc2OCCO)N2[C@H](c3ccccc3)[C@H](c3ccccc3)OC(=O)[C@H]2[C@@H]1C(=O)NC[C@H](O)c1ccccc1
lower

Quick one: Cc1ccc(NN2C(C(O)c3c(F)cccc3Cl)C=CC3C(=O)N(C4CCCCC4)C(=O)C32)cc1 (stereo not given)
lower

Quick one: COc1ccc([Si](C)(C)[C@@H]2[C@@H](CC(=O)N3CCC[C@H]3CO)O[C@]3(C(=O)N(Cc4cccc(N5C(=O)COc6ccccc65)c4)c4ccccc43)[C@H]2C)cc1
upper

Quick one: CCOC(=O)C1=CC[C@@H](c2ccccc2)N(S(=O)(=O)c2ccc(C)cc2)[C@H]1c1ccccc1
lower

Quick one: CCCCCCCCCC(O)C1C=CC2C(=O)N(c3ccccc3)C(=O)C2N1Nc1cc(OC)c(OC)c(OC)c1 (stereo not given)
lower

Quick one: CC1CC/C=C\[C@H]2OC34C=CCN(C(C)(C)C)C(=O)[C@H]3N(CCCCCO)C(=O)[C@@H]4C2C(=O)O1 (stereo not given in full)
lower

###

- assay: COS7 lysate on small-molecule microarray, probe aHis, 635 nm (AID 1123);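 note: z-score combines 667nm fluorescence intensity with signal-to-noise per printed compound spot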
- setup-conditions: COS7 cell lysate, fluorescence, higher = more signal
Please respond with reported composite z-score for every item in the list.
// return just the number, without any unit appended

If you can, please state the reported composite z-score value of CCOC(=O)C1=CC[C@@H](c2ccccc2)N(S(=O)(=O)c2ccc(C)cc2)[C@H]1c1ccccc1 .
0.69

Quick one: COC(=O)[C@@H]1N=C(c2ccc(OCCCO)cc2)O[C@@H]1c1ccccc1
0.387

Quick one: [N-]=[N+]=Nc1ccccc1[C@H]1OC(c2ccc(OCCCO)cc2)=N[C@@]1(Cc1ccccc1)C(=O)NCCN1CCOCC1
2.87

Quick one: O=C1C2C=CC(C(O)c3ccco3)N(Nc3ccccc3F)C2C(=O)N1c1ccccc1 (stereo not drawn)
1.85

Quick one: COc1ccc(C#Cc2ccc3c(c2)[C@]2(C(=O)N3)[C@H](c3ccc(O)cc3)N3[C@H](c4ccccc4)[C@H](c4ccccc4)OC(=O)[C@H]3[C@@H]2C(=O)Nc2nc3ccccc3s2)cc1
2.47

Quick one: CCCNC(=O)[C@@H]1c2ccccc2C(=O)N(Cc2ccc(OC(F)(F)F)cc2)[C@H]1c1ccc(CO)cc1
0.677

Quick one: Cc1ccc(S[C@]2(C(=O)NC(C)C)CC(=O)N(Cc3cc(C(F)(F)F)cc(C(F)(F)F)c3)[C@@H]2c2ccc(CO)cc2)cc1
0.596

Quick one: O=C1NC(=O)C2C1C=CC(C(O)c1ccco1)N2Nc1ccc(Cl)cc1Cl (stereo not drawn)
1.28

###

- assay: probe aLAP1 signal on lysate-treated microarray – cell lysate, small-molecule microarray, COS7 lysate, primary screen (AID 1124);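 note: lysate comes from COS7 cells expressing LAP1 and is applied at 0.3 µg/mL; score merges spot fluorescence near 667 nm with signal-to-noise over triplicate slides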
- setup-conditions: probe aLAP1, fluorescence, higher = more signal
composite z-score vs 0.4: at or above is Fulfilled, below is Not fulfilled.

State whether the measured composite z-score reaches 0.4, counting equality as reaching it, for CN1C(=O)C2C=CC(C(O)c3cccn3C)N(Nc3ccc([N+](=O)[O-])cc3[N+](=O)[O-])C2C1=O (stereo not drawn)
Not fulfilled

Quick one: O=C(NCc1ccc(F)cc1)[C@H]1C[C@H]2C(=O)NCC(=O)N2[C@H]1c1ccc(O)cc1
Not fulfilled

Quick one: COC(=O)C/C=C/C[C@]1(O)C(=O)N(C)c2ccccc21
Not fulfilled

Quick one: CC(=O)N1CC2(CC2)CC1c1ccccc1 (stereo not drawn)
Fulfilled

Quick one: CCOC(=O)C1=C[C@@H](C(C)(C)C)N(S(=O)(=O)c2ccc(C)cc2)[C@H]1c1cccc2ccccc12
Not fulfilled

Quick one: C=CCN1C(=O)[C@]2(CCS(=O)(=O)c3ccccc3)N=C(c3ccc(OCCCO)cc3)O[C@@H]2c2ccccc21
Fulfilled

Quick one: Cc1ccc(S[C@]2(C(=O)O)CC(=O)N(C3CCCCC3)[C@@H]2c2ccc(CO)cc2I)cc1
Fulfilled

Quick one: CCOC(=O)C[C@H]1[C@H](OC(=O)c2cc3ccccc3oc2=O)[C@@H](NC(=O)CC(C)C)c2cc(OCCCO)ccc2N1C(=O)c1ccc2ccccc2n1
Not fulfilled

###

- assay: growth of efflux-deficient E. coli DRC39 – strain DRC39, OD650, 24 h, E. coli filamentation inducers, primary screen (AID 1178);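 note: growth measured as culture turbidity by optical density at 650 nm; test concentration not given here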
- setup-conditions: E. coli DRC39 acrAB, higher = more signal, called active from +8 up or from −8 down
z-score vs 0.2: at or above is True, below is False.

State whether the measured z-score reaches 0.2, counting equality as reaching it, for O=C1N(Cc2ccccc2)c2ccccc2C[C@]12N=C(c1ccc(OCCCO)cc1)O[C@@H]2c1ccccc1
True

Quick one: CCOC(=O)C1=C[C@@H](c2ccccc2)N(S(=O)(=O)c2ccc(C)cc2)[C@H]1c1ccc(OC)cc1
False

Quick one: CC(C)C[C@@H]1NC(=O)[C@@H]2C[C@H](C(=O)NCCCCCCN)[C@H](c3cccc(OCCO)c3)N2C1=O
False

Quick one: C[N+](C)(C)CCCCCCNC(=O)[C@@H]1C[C@@H]2C(=O)N3CCC[C@H]3C(=O)N2[C@@H]1c1ccc(O)cc1
False

Quick one: [N-]=[N+]=Nc1ccccc1C[C@@]1(C(N)=O)N=C(c2ccc(OCCCO)cc2)O[C@@H]1c1ccccc1N=[N+]=[N-]
True

Quick one: CC#CCO[Si](C#Cc1ccccc1)(C(C)C)C(C)C
False

Quick one: [N-]=[N+]=Nc1ccccc1C[C@@]1(C(=O)NCCN2CCOCC2)N=C(c2ccc(OCCCO)cc2)O[C@@H]1c1ccccc1N=[N+]=[N-]
False

Quick one: O=C(NCCN1CCOCC1)[C@@H]1c2ccccc2C(=O)N(Cc2ccccc2Cl)[C@H]1c1ccc(CO)cc1
True

###

Please respond with reported composite z-score for every item in the list.
- measured-on: Neurogenic locus notch homolog protein 2 (Homo sapiens)
- assay: small molecules binding Notch2 protein – biochemical, small-molecule microarray, 635 nm fluorescence, stem cell growth factors, primary screen (AID 1073)
- setup-conditions: higher = more signal

Hi! What's the reported composite z-score for CCCC[C@@H](O)C1=C(COc2ccccc2)C[C@H]2C(=O)N(Cc3ccccc3)C(=O)[C@H]2[C@H]1CO on Neurogenic locus notch homolog protein 2 (Homo sapiens)?
0.339

Quick one: COCCOC(=O)N1C(=O)[C@@]2(c3cc(C#CC4=CCCCC4)ccc31)[C@H](c1ccccc1OCCO)N1[C@H](c3ccccc3)[C@H](c3ccccc3)OC(=O)[C@H]1[C@@H]2C(=O)N1CCN(c2ncccn2)CC1
1.07

Quick one: Cc1ccc(NN2C(C(O)c3c(F)cccc3Cl)C=CC3C(=O)N(C4CCCCC4)C(=O)C32)cc1 (centres undefined)
1.55

Quick one: CCCCCCCCCC(O)C1C=CC2C(=O)N(c3ccccc3)C(=O)C2N1Nc1cc(OC)c(OC)c(OC)c1 (centres undefined)
0.45

Reference for the values: PubChem BioAssay
